# Tgt: Human CD137 ECD (human)
# Sequence (chain, as listed by the source limits assumed): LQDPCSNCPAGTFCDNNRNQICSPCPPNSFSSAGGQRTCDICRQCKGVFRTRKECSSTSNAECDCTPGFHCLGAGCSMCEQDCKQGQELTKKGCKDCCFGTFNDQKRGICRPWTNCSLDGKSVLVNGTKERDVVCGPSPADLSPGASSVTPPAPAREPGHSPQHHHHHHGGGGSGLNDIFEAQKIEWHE
# Protocol details: SPR, vs parent H183/L072
# fold change of affinity per record follows

{"columns": ["Binder", "fold change of affinity [fold]"],
 "data": [
  ["dBBDu183H A100F / dBBDu072L (antibody, name in Kabat numbering, V domains shown) VH: QVQLVESGGGLVQPGRSLRLSCAASGFTFSNAWMHWVRQAPGKGLEWVAQIKDKGNAYAAYYAPSVKGRFTISRDDSKNSIYLQMNSLKTEDTAVYYCHYVHYASFSTVLPAFGVDAWGQGTTVTVSS VL: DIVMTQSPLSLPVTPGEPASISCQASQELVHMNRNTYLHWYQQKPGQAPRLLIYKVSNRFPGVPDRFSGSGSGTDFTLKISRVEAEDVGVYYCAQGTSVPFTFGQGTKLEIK", 0],
  ["dBBDu183H G100hH / dBBDu072L (antibody, name in Kabat numbering, V domains shown) VH: QVQLVESGGGLVQPGRSLRLSCAASGFTFSNAWMHWVRQAPGKGLEWVAQIKDKGNAYAAYYAPSVKGRFTISRDDSKNSIYLQMNSLKTEDTAVYYCHYVHYASASTVLPAFHVDAWGQGTTVTVSS VL: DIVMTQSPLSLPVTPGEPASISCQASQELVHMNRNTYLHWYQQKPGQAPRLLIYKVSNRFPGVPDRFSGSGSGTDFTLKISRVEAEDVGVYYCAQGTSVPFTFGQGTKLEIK", 0]
]}
